Consider the following compounds and their measured inhibition readings.
biological target: Receptor tyrosine-protein kinase erbB-4 (Homo sapiens) (UniProt Q15303); conditions: at 1 µM;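 note: each value is a mean percent inhibition of ERBB4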
Sequence (Q15303 whole entry): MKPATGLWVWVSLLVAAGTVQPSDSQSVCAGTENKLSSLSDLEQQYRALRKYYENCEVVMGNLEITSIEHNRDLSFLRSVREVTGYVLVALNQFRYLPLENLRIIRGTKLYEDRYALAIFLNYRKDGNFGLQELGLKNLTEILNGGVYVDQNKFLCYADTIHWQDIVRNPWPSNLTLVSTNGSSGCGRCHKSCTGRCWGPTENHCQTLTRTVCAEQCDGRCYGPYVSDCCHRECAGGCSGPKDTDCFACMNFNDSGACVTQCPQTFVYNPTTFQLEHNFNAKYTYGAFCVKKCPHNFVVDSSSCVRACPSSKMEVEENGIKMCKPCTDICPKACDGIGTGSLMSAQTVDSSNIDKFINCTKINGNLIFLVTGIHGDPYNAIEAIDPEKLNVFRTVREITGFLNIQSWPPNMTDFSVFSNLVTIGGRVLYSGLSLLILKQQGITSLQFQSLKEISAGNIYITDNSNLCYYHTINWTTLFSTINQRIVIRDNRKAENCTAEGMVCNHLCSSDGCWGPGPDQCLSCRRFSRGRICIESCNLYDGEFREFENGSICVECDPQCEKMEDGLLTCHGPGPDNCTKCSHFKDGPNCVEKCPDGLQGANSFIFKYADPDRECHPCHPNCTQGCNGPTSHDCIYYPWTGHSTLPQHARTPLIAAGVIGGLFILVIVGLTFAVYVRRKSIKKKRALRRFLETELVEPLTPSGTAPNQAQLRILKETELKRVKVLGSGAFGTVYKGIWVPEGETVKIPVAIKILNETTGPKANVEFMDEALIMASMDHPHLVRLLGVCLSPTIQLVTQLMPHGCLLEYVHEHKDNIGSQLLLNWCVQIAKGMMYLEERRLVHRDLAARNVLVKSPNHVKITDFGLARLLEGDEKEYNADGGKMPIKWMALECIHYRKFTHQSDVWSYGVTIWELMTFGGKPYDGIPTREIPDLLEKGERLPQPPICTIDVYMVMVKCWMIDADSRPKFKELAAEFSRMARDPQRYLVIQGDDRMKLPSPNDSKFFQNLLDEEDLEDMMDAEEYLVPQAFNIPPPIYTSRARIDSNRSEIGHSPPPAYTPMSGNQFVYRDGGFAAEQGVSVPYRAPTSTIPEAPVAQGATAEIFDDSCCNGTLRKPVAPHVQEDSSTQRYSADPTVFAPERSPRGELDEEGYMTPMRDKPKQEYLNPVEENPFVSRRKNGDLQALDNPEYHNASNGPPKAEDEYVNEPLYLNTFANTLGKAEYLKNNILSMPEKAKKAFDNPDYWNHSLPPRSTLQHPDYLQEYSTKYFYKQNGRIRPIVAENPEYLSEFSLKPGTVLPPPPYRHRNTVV
Express it in %; write the number only.

Cc1ccc2c(-c3ccnc(Nc4ccc5c(c4)OCCO5)n3)c(-c3ccc(C(F)(F)F)cc3)nn2n1    16.3
CCn1c(-c2nonc2N)nc2c(C#CC(C)(C)O)nc(OCCNC)cc21    7.02
COc1cc(Nc2nccc(-c3cnn4ncccc34)n2)cc(OC)c1    8.81
O=S(=O)(CCOCc1ccc(-c2ccc3ncnc(Nc4ccc(OCc5cccc(F)c5)c(Cl)c4)c3c2)o1)c1ccccc1    82.6
N#Cc1cccc(Nc2nccc(-c3cnn4ncccc34)n2)c1    19.1

If you can, please state the reported inhibition value of FC(F)(F)c1ccc(-c2nn3ncccc3c2-c2ccnc(Nc3ccc4c(c3)OCCO4)n2)cc1 .
43.5

If you can, please state the reported inhibition value of c1ccc(Nc2ncc(-c3ccccc3)o2)cc1 .
16

If you can, please state the reported inhibition value of Cc1ccc(O)cc1Nc1ccnc2ccc(S(C)(=O)=O)cc12 .
52.2

If you can, please state the reported inhibition value of COc1cccc(-n2ncc3c(N/N=C/c4ccc(S(C)(=O)=O)cc4)ncnc32)c1 .
7.9

If you can, please state the reported inhibition value of Cc1cc(-c2ccccn2)cc(C)c1/C=C/c1cncc(-c2nn[nH]n2)c1 .
21.3

If you can, please state the reported inhibition value of NC(=O)c1sc(-n2cnc3ccccc32)cc1OCc1ccccc1Br .
9.23

If you can, please state the reported inhibition value of COC(=O)Nc1nc2cc(Oc3ccc(NC(=O)Nc4cccc(Br)c4)cc3)ccc2[nH]1 .
11.2

If you can, please state the reported inhibition value of C[C@@H](Oc1cc(-n2cnc3ccc(OC[C@@H](O)CO)cc32)sc1C(N)=O)c1ccccc1Cl .
-1.55

If you can, please state the reported inhibition value of COc1ccc2ncnc(Nc3ccc(OCc4ccccc4)cc3)c2c1 .
85.1

If you can, please state the reported inhibition value of CCOc1nccc2c1nc(-c1nonc1N)n2CC .
18

If you can, please state the reported inhibition value of COc1cc(/C=N/Nc2ncnc3c2cnn3C(C)C)ccc1O .
6.31

If you can, please state the reported inhibition value of Cc1ccc2c(c1)/C(=N/Nc1ccc(S(N)(=O)=O)cc1)C(=O)N2 .
7.37

====

target: MAP/microtubule affinity-regulating kinase 4 (Homo sapiens); settings: at 0.1 µM;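 note: values are averaged percent inhibition of MARK4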
Consider the following compounds and their measured inhibition readings.
Express it in %; write the number only.

Some compounds with recorded inhibition:
NS(=O)(=O)c1ccc(N/N=C2\C(=O)Nc3ccc(Cl)cc32)cc1    2.09
Cc1ccc(C(=O)NC2CC2)cc1-c1ccc2[nH]ncc2c1    1.68

If you can, please state the reported inhibition value of O=S(=O)(CCOCc1ccc(-c2ccc3ncnc(Nc4ccc(OCc5cccc(F)c5)c(Cl)c4)c3c2)o1)c1ccccc1 .
1.36

If you can, please state the reported inhibition value of Cc1cc(Cl)cc2c1NC(=O)C2=NNc1ccc(S(N)(=O)=O)cc1 .
-0.63

If you can, please state the reported inhibition value of Cc1cc(-c2ccccn2)cc(C)c1/C=C/c1cncc(-c2nn[nH]n2)c1 .
2.52

If you can, please state the reported inhibition value of CC(C)c1ccc2c(c1)NC(=O)/C2=N/Nc1ccc(S(N)(=O)=O)cc1 .
-0.86

If you can, please state the reported inhibition value of CS(=O)(=O)Nc1cccc(-c2ccc3c(NC(=O)C4CC4)n[nH]c3c2)c1 .
1.87

====

target: Vascular endothelial growth factor receptor 1 (Homo sapiens); conditions: at 1 µM
Description: GSK_PKIS: FLT1 mean inhibition at 1 uM [Nanosyn]
Consider the following compounds and their measured inhibition readings.

# get_value(readout= inhibition, system= Vascular endothelial growth factor receptor 1 (Homo sapiens)) for Cc1cc(Cl)cc2c1NC(=O)C2=NNc1ccc(S(N)(=O)=O)cc1
-0.12%

====

Consider the following compounds and their measured inhibition readings.
Molecular target: Serine/threonine-protein kinase D2 (Homo sapiens)
Sequence (whole entry): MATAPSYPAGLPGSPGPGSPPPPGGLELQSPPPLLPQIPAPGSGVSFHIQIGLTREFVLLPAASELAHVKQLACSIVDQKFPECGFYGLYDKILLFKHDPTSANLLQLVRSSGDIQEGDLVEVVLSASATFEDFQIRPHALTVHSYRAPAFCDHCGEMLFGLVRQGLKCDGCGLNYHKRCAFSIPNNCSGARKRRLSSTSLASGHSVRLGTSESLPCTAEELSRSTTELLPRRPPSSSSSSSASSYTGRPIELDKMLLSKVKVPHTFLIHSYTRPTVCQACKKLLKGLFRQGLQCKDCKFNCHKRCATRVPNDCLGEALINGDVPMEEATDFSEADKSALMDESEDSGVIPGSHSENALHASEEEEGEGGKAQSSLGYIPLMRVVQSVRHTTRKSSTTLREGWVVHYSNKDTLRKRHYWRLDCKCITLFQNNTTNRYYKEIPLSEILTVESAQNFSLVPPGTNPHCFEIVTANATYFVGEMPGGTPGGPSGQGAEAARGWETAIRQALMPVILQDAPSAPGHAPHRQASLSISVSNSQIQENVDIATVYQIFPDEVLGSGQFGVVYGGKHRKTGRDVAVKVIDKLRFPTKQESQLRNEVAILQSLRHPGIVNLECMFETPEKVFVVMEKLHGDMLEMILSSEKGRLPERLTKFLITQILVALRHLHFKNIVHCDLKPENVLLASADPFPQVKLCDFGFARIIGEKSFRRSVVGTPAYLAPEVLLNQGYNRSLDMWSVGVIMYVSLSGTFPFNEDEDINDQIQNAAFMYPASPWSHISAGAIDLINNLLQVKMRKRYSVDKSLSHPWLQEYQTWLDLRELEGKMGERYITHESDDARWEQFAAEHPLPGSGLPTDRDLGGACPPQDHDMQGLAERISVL
Settings: at 0.1 µM
Express it in %; write the number only.

Some compounds with recorded inhibition:
CN(c1ccc(NC(=O)Nc2ccc(OC(F)(F)F)cc2)cc1)c1ccnc(Nc2cccc(S(N)(=O)=O)c2)n1    3.68
NS(=O)(=O)c1cccc(Nc2cc(-c3ccc(F)cc3)n[nH]2)c1    2.47
CN(C)C(=O)O[C@@H]1CN[C@@H](C#Cc2cc3ncnc(Nc4ccc(OCc5cccc(F)c5)c(Cl)c4)c3s2)C1    0.79
N#Cc1c(NC(=O)c2ccccc2F)sc2c1CCCC2    0.84
COc1cc2ncnc(Nc3ccc(C)c(O)c3)c2cc1OC    5.41

# get_value(readout= inhibition, system= Serine/threonine-protein kinase D2 (Homo sapiens)) for Cc1ccc2c(-c3ccnc(Nc4cccc(C(F)(F)F)c4)n3)c(-c3ccccc3)nn2n1;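 note: reported percent inhibition values are means, part of the GSK PKIS kinase panel screen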
12.8

====

target: Calcium/calmodulin-dependent protein kinase type II subunit delta (Homo sapiens); conditions: at 1 µM;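 note: mean percent inhibition of CAMK2D, from screening of the GSK Published Kinase Inhibitor Set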
observation type: inhibition (%)
Express it in %; write the number only.

If you can, please state the reported inhibition value of NS(=O)(=O)c1ccc(Nc2cc(-c3cccc(O)c3)n[nH]2)cc1 .
6.02

If you can, please state the reported inhibition value of c1ccc(Cc2nc3ccc(Nc4ncnc5ccccc45)cc3[nH]2)cc1 .
2.41

If you can, please state the reported inhibition value of COc1cccc(-n2ncc3c(N/N=C/c4ccc(C)cc4)ncnc32)c1 .
12.5

If you can, please state the reported inhibition value of Cc1cc(Cl)cc2c1NC(=O)C2=NNc1ccc(S(N)(=O)=O)cc1 .
-0.12

If you can, please state the reported inhibition value of CN(C)C(=O)O[C@H]1CN[C@H](C#Cc2cc3ncnc(Nc4ccc(OCc5cccc(F)c5)c(Cl)c4)c3s2)C1 .
2.41

If you can, please state the reported inhibition value of COc1cc(Nc2nccc(-c3cnn4ncccc34)n2)cc(OC)c1 .
36.4

If you can, please state the reported inhibition value of O=C(Nc1ccc(Oc2ccc3[nH]c(NC(=O)c4ccco4)nc3c2)cc1)Nc1cc(C(F)(F)F)ccc1F .
4.15

If you can, please state the reported inhibition value of CCS(=O)(=O)c1ccc(OC)c(Nc2nccc(N(C)c3ccc4c(C)n[nH]c4c3)n2)c1 .
6.46

====

Consider the following molecules and their measured inhibition readings.
Molecular target: Ephrin type-B receptor 2 (Homo sapiens) (UniProt P29323);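 note: reported as mean inhibition of EPHB2, from the GSK PKIS dataset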
Sequence (whole entry): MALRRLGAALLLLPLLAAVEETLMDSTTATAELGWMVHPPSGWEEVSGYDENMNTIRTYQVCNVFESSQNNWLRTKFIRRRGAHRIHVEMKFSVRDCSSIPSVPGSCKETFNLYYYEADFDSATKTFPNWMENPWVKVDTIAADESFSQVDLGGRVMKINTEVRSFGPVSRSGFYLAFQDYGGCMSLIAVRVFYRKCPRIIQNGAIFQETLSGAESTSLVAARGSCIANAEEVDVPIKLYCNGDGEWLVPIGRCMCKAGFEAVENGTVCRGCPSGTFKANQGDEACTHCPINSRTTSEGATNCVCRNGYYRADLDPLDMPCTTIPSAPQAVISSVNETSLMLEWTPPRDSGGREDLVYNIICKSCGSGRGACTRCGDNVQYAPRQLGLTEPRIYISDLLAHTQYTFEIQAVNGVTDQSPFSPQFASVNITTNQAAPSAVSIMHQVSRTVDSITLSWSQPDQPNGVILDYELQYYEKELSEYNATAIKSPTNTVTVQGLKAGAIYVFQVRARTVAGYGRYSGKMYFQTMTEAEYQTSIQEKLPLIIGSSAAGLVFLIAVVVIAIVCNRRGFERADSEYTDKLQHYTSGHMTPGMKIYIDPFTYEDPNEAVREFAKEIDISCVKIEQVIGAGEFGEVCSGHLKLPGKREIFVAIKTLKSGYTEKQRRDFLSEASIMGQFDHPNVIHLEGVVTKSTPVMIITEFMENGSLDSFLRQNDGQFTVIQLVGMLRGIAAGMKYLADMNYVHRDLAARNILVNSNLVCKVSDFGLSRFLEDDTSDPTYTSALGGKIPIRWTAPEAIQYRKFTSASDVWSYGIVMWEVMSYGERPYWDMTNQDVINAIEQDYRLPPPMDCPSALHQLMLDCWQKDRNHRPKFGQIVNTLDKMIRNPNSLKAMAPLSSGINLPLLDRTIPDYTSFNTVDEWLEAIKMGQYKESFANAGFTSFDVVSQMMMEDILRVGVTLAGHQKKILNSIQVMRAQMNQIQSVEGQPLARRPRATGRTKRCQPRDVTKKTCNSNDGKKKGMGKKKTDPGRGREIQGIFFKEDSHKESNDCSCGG
Settings: at 0.1 µM
Express it in %; write the number only.

Some molecules with recorded inhibition:
CN(C)C(=O)O[C@H]1CN[C@H](C#Cc2cc3ncnc(Nc4ccc(OCc5cccc(F)c5)c(Cl)c4)c3s2)C1    9.47
NS(=O)(=O)c1cccc(Nc2cc(-c3ccc(F)cc3)n[nH]2)c1    5.43
COc1cc(/C=N/Nc2ncnc3c2cnn3C(C)C)ccc1O    5.57
CS(=O)(=O)Nc1cccc(-c2ccc3c(NC(=O)C4CC4)n[nH]c3c2)c1    -4.01
Cc1cc(O)cc(C)c1/C=C/c1cncc(C(=O)N(C)C)c1    9.34

If you can, please state the reported inhibition value of FC(F)(F)c1ccc(-c2nn3ncccc3c2-c2ccnc(Nc3ccc4c(c3)OCCO4)n2)cc1 .
3.69

If you can, please state the reported inhibition value of NS(=O)(=O)c1ccc(NC=C2C(=O)Nc3ccc4ncsc4c32)cc1 .
4.62

If you can, please state the reported inhibition value of CN(C)C(=O)O[C@@H]1CN[C@@H](C#Cc2cc3ncnc(Nc4ccc(OCc5cccc(F)c5)c(Cl)c4)c3s2)C1 .
0.71

If you can, please state the reported inhibition value of NC(=O)c1sc(-n2cnc3ccccc32)cc1OCc1ccccc1Br .
5.64
